- system_under_test: PI3Kδ (recombinant GST-tagged PIK3CD co-expressed with PIK3R1, p85α) (Homo sapiens)
- Construct: The protein is full length and co-expressed with untagged PIK3R1; GST; purchased Invitrogen PV5274
- Sequence (O00329 whole entry): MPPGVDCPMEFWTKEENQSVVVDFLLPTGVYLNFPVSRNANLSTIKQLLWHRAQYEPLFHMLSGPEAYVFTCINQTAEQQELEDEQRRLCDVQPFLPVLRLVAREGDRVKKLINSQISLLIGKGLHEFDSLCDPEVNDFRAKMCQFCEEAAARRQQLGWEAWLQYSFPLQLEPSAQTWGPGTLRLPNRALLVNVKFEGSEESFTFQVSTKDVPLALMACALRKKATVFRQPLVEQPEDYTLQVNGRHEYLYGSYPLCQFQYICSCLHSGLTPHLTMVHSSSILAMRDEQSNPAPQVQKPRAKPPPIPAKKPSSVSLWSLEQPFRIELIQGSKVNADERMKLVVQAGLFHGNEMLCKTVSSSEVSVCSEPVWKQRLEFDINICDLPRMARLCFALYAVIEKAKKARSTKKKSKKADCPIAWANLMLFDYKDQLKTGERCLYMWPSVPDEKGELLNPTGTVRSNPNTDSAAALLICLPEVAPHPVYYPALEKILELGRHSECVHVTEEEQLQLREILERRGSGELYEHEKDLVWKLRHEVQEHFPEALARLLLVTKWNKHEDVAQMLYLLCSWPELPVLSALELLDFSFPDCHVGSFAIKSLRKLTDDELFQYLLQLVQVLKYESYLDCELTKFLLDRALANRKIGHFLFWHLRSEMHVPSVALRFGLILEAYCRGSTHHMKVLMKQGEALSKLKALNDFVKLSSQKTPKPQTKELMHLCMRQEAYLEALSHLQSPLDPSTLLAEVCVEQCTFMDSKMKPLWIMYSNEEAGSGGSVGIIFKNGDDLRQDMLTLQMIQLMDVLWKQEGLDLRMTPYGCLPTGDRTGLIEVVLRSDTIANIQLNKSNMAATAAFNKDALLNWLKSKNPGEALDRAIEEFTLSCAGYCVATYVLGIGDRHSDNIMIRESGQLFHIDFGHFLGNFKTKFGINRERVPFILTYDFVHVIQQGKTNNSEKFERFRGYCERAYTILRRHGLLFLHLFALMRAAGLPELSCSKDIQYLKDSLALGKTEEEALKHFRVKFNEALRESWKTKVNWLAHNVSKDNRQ
- Sequence (P27986 whole entry partner): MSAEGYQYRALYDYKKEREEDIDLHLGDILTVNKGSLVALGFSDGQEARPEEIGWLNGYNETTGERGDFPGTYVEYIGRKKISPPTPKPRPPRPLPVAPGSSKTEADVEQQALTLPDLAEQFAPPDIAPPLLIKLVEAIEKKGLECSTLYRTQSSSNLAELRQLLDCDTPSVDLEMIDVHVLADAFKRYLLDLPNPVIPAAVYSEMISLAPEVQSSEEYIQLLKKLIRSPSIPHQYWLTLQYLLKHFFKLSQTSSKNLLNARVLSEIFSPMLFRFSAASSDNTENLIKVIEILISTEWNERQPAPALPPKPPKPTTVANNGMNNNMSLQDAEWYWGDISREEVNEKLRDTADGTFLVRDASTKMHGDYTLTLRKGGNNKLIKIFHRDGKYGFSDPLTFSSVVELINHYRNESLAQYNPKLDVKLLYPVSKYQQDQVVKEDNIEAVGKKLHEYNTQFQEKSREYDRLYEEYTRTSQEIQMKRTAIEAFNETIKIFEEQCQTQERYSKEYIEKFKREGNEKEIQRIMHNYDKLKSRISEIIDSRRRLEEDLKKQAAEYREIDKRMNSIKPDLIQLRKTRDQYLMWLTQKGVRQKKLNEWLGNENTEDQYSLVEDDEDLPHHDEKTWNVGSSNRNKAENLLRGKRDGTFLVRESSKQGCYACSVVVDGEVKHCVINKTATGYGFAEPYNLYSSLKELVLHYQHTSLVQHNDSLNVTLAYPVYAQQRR
- method_description: modified PIK3CD Adapta TR-FRET kinase assay (PI3Kδ inhibition)
- Type: biochemical
- study_conditions: 2 μM ATP, 50 μM PIP2, room temperature, 1 hour
pIC50: −log10 of the molar value.
quantity: pIC50

>  <molecule>
Cc1nc(N)nc(N[C@@H](C)c2nc3ccn(C)c3cc2N2CCC[C@H](N)C2)c1C#N (single isomer, unassigned)

>  <quantity>
pIC50

>  <measured>
8.27

$$$$
>  <molecule>
Cc1nc(N)nc(N[C@@H](C)c2nc3ccn(C)c3cc2N2CC[C@@H](N)C2)c1C#N (single isomer, unassigned)

>  <quantity>
pIC50

>  <measured>
8.38

$$$$
>  <molecule>
Cc1nc(N)nc(N[C@@H](C)c2nc3ccn(C)c3cc2N2CCC[C@@H](N)C2)c1C#N (single isomer, unassigned)

>  <quantity>
pIC50

>  <measured>
8.54

$$$$
>  <molecule>
Cc1nc(N)nc(N[C@@H](C)c2nc3ccn(C)c3cc2N2CCN[C@@H](C)C2)c1C#N

>  <quantity>
pIC50

>  <measured>
8.30

$$$$

a = Cc1nc(N)nc(N[C@@H](C)c2nc3ccn(C)c3cc2N2CC[C@H](N)C2)c1C#N (single isomer, unassigned)
b = CN[C@H]1CCN(c2cc3c(ccn3C)nc2[C@H](C)Nc2nc(N)nc(C)c2C#N)C1
c = C[C@H](Nc1nc(N)nc(N)c1C#N)c1nc2ccn(C)c2cc1N1CCNCC1
d = CCc1nc(N)nc(N[C@@H](C)c2nc3ccn(C)c3cc2N2CCNCC2)c1C#N
Order by pIC50, ascending. To answer, arrange all of the labels according to the requested order.
d, b, a, c
(d: 6.66, b: 8.25, a: 8.59, c: 9.00)

P = Cc1nc(N)nc(N[C@@H](C)c2nc3ccn(C)c3cc2N(C)C2CNC2)c1C#N
Q = CC[C@H](Nc1nc(N)nc(C)c1C#N)c1nc2ccn(C)c2cc1N1CCNCC1
Among P and Q , whose measured pIC50 is the smaller figure? I would appreciate it if you answered with the label of your choice.
P

I = Cc1nc(N)nc(N[C@@H](C)c2nc3ccn(C)c3cc2C2CCNCC2)c1C#N
II = Cc1nc(N)nc(N[C@@H](C)c2nc3ccn(C)c3cc2N2CCCNCC2)c1C#N
III = Cc1nc(N)nc(N[C@@H](C)c2nc3ccn(C)c3cc2C2=CCC(N)CC2)c1C#N (stereo partly drawn)
Order by pIC50, ascending. To answer, arrange all of the labels according to the requested order.
III, II, I

P = Cc1nc(N)nc(N[C@@H](C)c2nc3ccn(C)c3cc2N2CCN[C@H](C)C2)c1C#N
Q = Cc1nc(N)nc(N[C@@H](C)c2nc3ccn(C)c3cc2[C@H]2CCNC2)c1C#N (single isomer, unassigned)
Among P and Q , whose measured pIC50 is the smaller figure? I would appreciate it if you answered with the label of your choice.
P
(P: 8.66, Q: 8.89)

Values compiled from patent US9371321B2.
